I'd appreciate it if you could supply Kd values for the items below.
target under test: T1, biotinylated recombinant human trimeric ARG2 enzyme (Avi-huARG2-His10) (human, UniProt P78540 23-354, biotinylated)
T1 construct: also called avi-Arg2-His10; bio-ARG2
T1 chain: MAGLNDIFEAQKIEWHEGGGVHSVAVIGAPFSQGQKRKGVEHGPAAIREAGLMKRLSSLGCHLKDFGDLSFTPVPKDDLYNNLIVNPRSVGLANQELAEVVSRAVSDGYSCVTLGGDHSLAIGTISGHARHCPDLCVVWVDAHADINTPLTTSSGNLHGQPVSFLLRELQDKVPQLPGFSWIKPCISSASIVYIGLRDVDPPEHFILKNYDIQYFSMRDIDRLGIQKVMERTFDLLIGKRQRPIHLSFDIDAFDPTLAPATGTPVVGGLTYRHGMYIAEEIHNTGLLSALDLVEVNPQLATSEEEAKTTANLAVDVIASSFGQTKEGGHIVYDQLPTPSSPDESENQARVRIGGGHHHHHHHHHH
method summary: BLI (OctetRED), biotinylated ARG2 on streptavidin, Fab as analyte
Protocol: An Octet Kinetics Buffer (PBS containing 0.01% BSA and 0.002% Tween20) is typically used as the diluent buffer for the analyte samples and as the flow buffer during the dissociation phase. The experimental data is recorded over time as shift in interference pattern (nm) over time, which is directly proportional to the optical thickness at the biosensor tip, which in turn is an approximate measure of the mass of analyte bound. […]
Use nM as the unit, but write only the number.

Query block: Answer with reported Kd of C0021092 Fab (Fab, V domains shown, Human Fab) VH: EVQLLESGGGLVQPGGSLRLSCAASGFTFSRYAMSWVRQAPGKGLEWVSAHTHSPGSTYYADSVKGRFTISRDNSKNTLYLQMNSLRAEDTAVYYCARLRADLGLYMDLWGRGTLVTVSS VL: QSVLTQPPSVSAAPGQKVTISCSGSSSNIGNHYVSWYQQLPGTAPKLLIYNSVARPSGIPDRFSGSKSGTSATLGITGLQTGDEADYYCGTWDSSLSALVFGGGTKLTVL
Result block: 2.69

Query block: Fill in reported Kd for this entry: C0021128 Fab (Fab, V domains shown, Human Fab) VH: EVQLLESGGGLVQPGGSLRLSCAASGFTFQYEVAAWVRQAPGKGLEWVSAISGPIPKGYYADSVKGRFTISRDNSKNTLYLQMNSLRAEDTAVYYCARLRADLGLYMDLWGRGTLVTVSS VL: QSVLTQPPSVSAAPGQKVTISCSGSSSNIGNHYVSWYQQLPGTAPKLLIYDNAIESSGIPDRFSGSKSGTSATLGITGLQTGDGADYYCGTWDSNLSALVFGGGTKLTVL
Result block: 2.53

Query block: Look up Kd of C0021101 Fab (Fab, V domains shown, Human Fab) VH: EVQLLESGGGLVQPGGSLRLSCAASGFTFSSYAMSWVRQAPGKGPEWVSAISGFSPYYADSVKGRFTISRDNSKNTLYLQMNSLRAEDTAVYYCARLRADLGLYMDLWGRGTLVTVSS VL: QSVLTQPPSVSAAPGQKVTISCSGSSSNIGNHYVSWYQQLPGTAPKLLIYNNRSPTSGIPDRFSGSKSGTSATLGITGLQTGDEADYYCGTWDSSLSALVFGGGTKLTVL and report it.
Result block: 3.41
